- ASSAY METHOD TEXT: Transport study in a BBB cell model (bidirectional transwell permeability)
- Format: in vitro ADME, Human
- STUDY CONDITIONS: human; hBMEC monolayer on transwell, basolateral-to-apical, within 120 min, 37 °C, Mean ± SD, n = 3
# maps each entry to its Papp B→A at 120 min
MEASURE: Papp B→A at 120 min

>>> measured_result("O=C(O)c1ccc(O)c(O)c1")
"41.3 ×10⁻⁶ cm/s"
>>> measured_result("Cc1coc2c1C(=O)C(=O)c1c-2ccc2c1CCCC2(C)C")
"0.0253 ×10⁻⁶ cm/s"
>>> measured_result("O=C(O)/C=C/c1ccc(O)c(O)c1")
"22.5 ×10⁻⁶ cm/s"
>>> measured_result("O=Cc1ccc(O)c(O)c1")
"12.2 ×10⁻⁶ cm/s"
>>> measured_result("C[C@H]1COC2=C1C(=O)C(=O)c1c2ccc2c1CCCC2(C)C")
"5.12 ×10⁻⁶ cm/s"
>>> measured_result("Cc1cccc2c3c(ccc12)C1=C(C(=O)C3=O)[C@@H](C)CO1 [DTS I, dihydrotanshinone I]")
"3.62 ×10⁻⁶ cm/s"

----------
- Tested on: hBMEC cell monolayer (BBB cell model)
- ASSAY METHOD TEXT: Transport study in a BBB cell model (bidirectional transwell permeability)
- Format: in vitro ADME, Human
- STUDY CONDITIONS: BBB cell model, within 120 min
MEASURE: Absorption in the BBB model (class by Papp (AP-BL))

>>> measured_result("O=C(O)/C=C/c1ccc(O)c(O)c1")
"easily absorbed"
>>> measured_result("O=C(O)c1ccc(O)c(O)c1")
"easily absorbed"
>>> measured_result("O=Cc1ccc(O)c(O)c1")
"easily absorbed"
>>> measured_result("C[C@H]1COC2=C1C(=O)C(=O)c1c2ccc2c1CCCC2(C)C")
"moderate absorption"
>>> measured_result("Cc1cccc2c3c(ccc12)C1=C(C(=O)C3=O)[C@@H](C)CO1 [DTS I, dihydrotanshinone I]")
"moderate absorption"

----------
- ASSAY METHOD TEXT: Transport study in a BBB cell model (bidirectional transwell permeability)
- Type: in vitro ADME, Human
- STUDY CONDITIONS: human; ER = Papp (BL-AP)/Papp (AP-BL), BBB cell model
- Description: The hBMECs cells were seeded at a density of 3 × 10^5 cells per well on the transwell plates in EMC. Apical side volumes were 0.5 mL, and the medium was changed every day. Basal side volumes were 1.5 mL, and the medium was changed every other day. The medium was changed until confluent monolayers were formed. […] TEER provides information on ion current resistance across cell monolayers related to the integrity of tight junctions between cells. […]
MEASURE: efflux ratio at 120 min

>>> measured_result("O=C(O)/C=C/c1ccc(O)c(O)c1 [CFA, caffeic acid]")
1.05
>>> measured_result("O=C(O)c1ccc(O)c(O)c1 [PCTA, protocatechuic acid]")
0.946
>>> measured_result("C[C@H]1COC2=C1C(=O)C(=O)c1c2ccc2c1CCCC2(C)C [CTS, cryptotanshinone]")
1.03
>>> measured_result("O=Cc1ccc(O)c(O)c1 [PAL, protocatechuic aldehyde]")
0.805
>>> measured_result("Cc1cccc2c3c(ccc12)C1=C(C(=O)C3=O)[C@@H](C)CO1 [DTS I, dihydrotanshinone I]")
0.779
>>> measured_result("Cc1coc2c1C(=O)C(=O)c1c-2ccc2c1CCCC2(C)C [TS IIA, tanshinone IIA]")
0.673
